target: DEN2 CE (Dengue virus type 2); type: binding, dengue virus 2 (strain 16681); conditions: read-out: apparent Ki, TF, DEN
REPORTED PROPERTY: pKi
By convention, pKi is the negative base-10 log of a molar concentration.

# MOLECULE, pKi
rows = [
    ("Cc1ccc(C)n1C(Cc1c[nH]c2ccccc12)C(=O)O (centres unmarked)", 5.04),
]

Please find the next molecule below.
Under DEN2 CE (Dengue virus type 2): report pKi of `COC(=O)[n+]1ccc(N2CCOCC2)cc1` .
5.59

====

biological target: YF CE (Yellow fever virus); conditions: read-out: apparent Ki, FP, YF
Sequence (P03314 2507-2771 limits assumed): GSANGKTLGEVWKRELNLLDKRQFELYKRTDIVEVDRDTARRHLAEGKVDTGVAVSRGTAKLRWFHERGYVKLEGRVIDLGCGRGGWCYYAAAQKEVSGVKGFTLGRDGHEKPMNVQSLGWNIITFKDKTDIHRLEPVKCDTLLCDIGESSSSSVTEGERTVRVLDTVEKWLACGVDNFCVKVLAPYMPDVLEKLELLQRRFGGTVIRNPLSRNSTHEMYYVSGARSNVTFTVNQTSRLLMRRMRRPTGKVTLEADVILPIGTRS
Below is a list of entries, each paired with its recorded Ki value.
Phrase the answer as number then unit, nothing more needed.

# COMPOUND, Ki
data = [
    ("COC(=O)[n+]1ccc(N2CCOCC2)cc1", "4.9 µM"),
]

Please find the next compound below.
Supply measured Ki of Cc1ccc(C)n1C(Cc1c[nH]c2ccccc12)C(=O)O (centres unmarked) in your reply.
5.8 µM

====

target: YF CE (Yellow fever virus); conditions: read-out: apparent Ki, TF, YF
Below is a list of entries, each paired with its recorded Ki value.
Give just the number in µM; leave the unit off.

# COMPOUND, SYSTEM, Ki (µM)
measured = [
    ("COC(=O)[n+]1ccc(N2CCOCC2)cc1", "YF CE (Yellow fever virus)", 6.2),
]

Please find the next compound below.
Supply measured Ki of Cc1ccc(C)n1C(Cc1c[nH]c2ccccc12)C(=O)O (centres unmarked) in your reply.
5.8

====

Biological target: DEN CE (Dengue virus type 2)
Sequence (P29990 2493-2755 limits assumed): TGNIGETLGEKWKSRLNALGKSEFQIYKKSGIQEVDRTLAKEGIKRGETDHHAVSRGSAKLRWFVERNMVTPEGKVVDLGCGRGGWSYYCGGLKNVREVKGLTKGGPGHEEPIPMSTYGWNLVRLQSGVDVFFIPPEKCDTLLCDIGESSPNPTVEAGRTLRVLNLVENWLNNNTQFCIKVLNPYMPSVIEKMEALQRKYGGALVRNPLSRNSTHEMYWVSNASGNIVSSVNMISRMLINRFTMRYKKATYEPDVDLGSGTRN
REPORTED PROPERTY: pIC50
By convention, pIC50 is the negative base-10 log of a molar concentration.

Supply measured pIC50 of Cc1ccc(C)n1C(Cc1c[nH]c2ccccc12)C(=O)O (stereo not shown) [BAS 01211690] in your reply.
4.10
